Ref: paper PMC4763415

Task for the reader: assign each of the following compounds its reported pIC50.
- Tested on: A2780 (Cisplatin sensitive ovarian cancer cells)
- protocolDescription: XTT cell proliferation assay, A2780
- Format: cell-based, human
- conditionDetails: Table 2; XTT; read-out: IC50 A2780
Numbers only, as −log10 of the molar value.

Below, 3 compounds whose answers are already recorded.
[
  {
    "compound": "N.N.[Cl][Pt][Cl] [Cisplatin, cis-Diamminedichloroplatinum (II)]",
    "pIC50": 5.89
  },
  {
    "compound": "N.N.O=C([O-])C1(C(=O)[O-])CCC1.[Pt+2] [Carboplatin, reference compound]",
    "pIC50": 4.77
  },
  {
    "compound": "CCCCCCCCCCCC(=O)[O][Pt]([NH2])([NH2])([Cl])([Cl])[O]C(=O)CCCCCCCCCCC [RJY6]",
    "pIC50": 6.15
  }
]

Data request: What pIC50 appears in the records for this compound with A2780 (Cisplatin sensitive ovarian cancer cells)? CCCCCCCC(=O)[O][Pt]([NH2])([NH2])([Cl])([Cl])[O]C(=O)CCCCCCC [RJY13]
Data returned: 7.10

====

- Tested on: human embryonic kidney cell line 293 T (HEK293T)
- protocolDescription: XTT cell proliferation assay, HEK293T
- Format: cell-based
- conditionDetails: Table 2; XTT; non-cancerous cells
- Description: (2,3-bis-(2-methoxy-4-nitro-5-sulfophenyl)-2H-tetrazolium-5-carboxanilide) (XTT) assay was used as previously described to evaluate the cytotoxicity of the different Cisplatin derivatives. […] The optical density was measured by a multi-well plate spectrophotometer at 450 nanometers with a references’ wavelength of 630 nm. […] The experiment was performed in triplicate, and standard deviations were also calculated.
observedProperty: IC50 (µM)
Answers are plain numbers, in µM.

[
  {
    "compound": "N.N.O=C([O-])C1(C(=O)[O-])CCC1.[Pt+2] [Carboplatin, reference compound]",
    "system": "human embryonic kidney cell line 293 T (HEK293T)",
    "IC50 [µM]": 45
  },
  {
    "compound": "CCCCCCCC(=O)[O][Pt]([NH2])([NH2])([Cl])([Cl])[O]C(=O)CCCCCCC [RJY13]",
    "system": "human embryonic kidney cell line 293 T (HEK293T)",
    "IC50 [µM]": 0.5
  },
  {
    "compound": "CCCCCCCCCCCC(=O)[O][Pt]([NH2])([NH2])([Cl])([Cl])[O]C(=O)CCCCCCCCCCC [RJY6]",
    "system": "human embryonic kidney cell line 293 T (HEK293T)",
    "IC50 [µM]": 11.8
  }
]

Data request: If you can, please state the reported IC50 value of N.N.[Cl][Pt][Cl] [Cisplatin, cis-Diamminedichloroplatinum (II)] .
Data returned: 3.2
